Values were extracted from patent US20250313626A1.

- Target desc: T1, human CD200R1 isoform a on CHOK1 cells (CHOK1/hCD200R1a) (human, UniProt Q8TD46 25-348)
- T1 construct: also called CHOK1/CD200R1a
- T1 sequence: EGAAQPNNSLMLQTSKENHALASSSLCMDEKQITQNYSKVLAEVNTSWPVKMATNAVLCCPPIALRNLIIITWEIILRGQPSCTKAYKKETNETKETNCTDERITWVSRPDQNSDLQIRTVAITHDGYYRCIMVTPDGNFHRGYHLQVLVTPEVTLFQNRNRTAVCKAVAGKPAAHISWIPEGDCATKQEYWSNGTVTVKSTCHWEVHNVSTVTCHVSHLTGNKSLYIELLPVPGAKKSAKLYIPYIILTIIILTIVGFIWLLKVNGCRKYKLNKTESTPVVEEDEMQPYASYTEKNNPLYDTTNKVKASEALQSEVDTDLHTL
- Protocol details: flow cytometry, CHOK1/hCD200R1a cells (FITC-Mean); table beside the curves
Recorded endpoint: MFI(Max)
Give the value as a plain number.

Which MFI(Max) reading was recorded for the binder PR007630 (antibody, human IgG1, kappa, V domains shown, PTM variant of PR006839 (human IgG1)) VH: QVQLVESGGGVVQPGRSLRLSCAASGFTFSSYGFHWVRQAPGKGLEWLGIIWSDASNKYYADSVKGRFTISRDNSKNTLYLQMNSLRAEDTAVYYCARDRIVGEGFDYWGQGTLVTVSS VL: DIVMTQSPLSLPVTPGEPASISCRSSQSLLHRSGYNYLDWYLQKPGQSPQLLIYLGSYRASGVPDRFSGSGSGTDFTLKISRVEAEDVGVYYCMQGLQTMYTFGQGTKLEIKR ? 18900
